assay target: human σ2/TMEM97 receptor (Homo sapiens)
Sequence (Q5BJF2 whole entry): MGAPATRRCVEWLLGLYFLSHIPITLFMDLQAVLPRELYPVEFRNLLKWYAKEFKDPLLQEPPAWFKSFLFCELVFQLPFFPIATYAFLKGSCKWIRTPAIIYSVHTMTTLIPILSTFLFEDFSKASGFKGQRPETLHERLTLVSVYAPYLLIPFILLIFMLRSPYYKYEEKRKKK
procedure summary: Binding assay to human σ2/TMEM97 receptor
conditions: transfected HEK-293 membranes, 10 nM [3H]-DTG, 25° C. 120 minutes; + may also stand for 1-50% inhibition at 1 or 10 μM; read-out: Binding σ-2 Ki
pKi: −log10 of the molar value.
measurement type: pKi

Worked examples follow.
CC(C)(C)CCN1CCC2(CC1)CCN(S(=O)(=O)c1ccc(N3CCC4(CCCO4)CC3)nc1)CC2 ... > 7.00
O=S(=O)(c1ccc(N2CCOCC2)nc1)N1CCC2(CCN(Cc3ccccc3)CC2)C1 ... 6.30 to 7.00
N#Cc1cccc(CN2CCC3(CC2)CCN(S(=O)(=O)c2ccc(N4CCOCC4)nc2)CC3)c1 ... > 7.00
CN([C@@H]1CCN(Cc2ccccc2)C1)S(=O)(=O)c1ccc(N2CCOCC2)nc1 ... < 6.00
CC(C)(C)CCN1CCC2(CC1)CCN(S(=O)(=O)c1ccc(N3CCC4(CCCO4)CC3)nc1)C2 ... > 7.00

Please state pKi for every compound in the list that follows.
1. CN(C)c1ccc(S(=O)(=O)N[C@H]2CCN(Cc3ccccc3)C2)cn1
2. O=S(=O)(c1ccc(N2CCOCC2)nc1)N1CCCC2(CCN(Cc3ccccc3)CC2)C1
3. O=S(=O)(N[C@H]1CC[C@H](NCc2cccc(F)c2)CC1)c1ccc(N2CCOCC2)nc1
4. CC(=O)N(C)c1ccc(S(=O)(=O)N2CCC3(CCN(CCC(C)(C)C)CC3)CC2)cn1

Result:
< 6.00
> 7.00
6.30 to 7.00
> 7.00

Provenance of the data: patent US20240254115A1
